Readings of melting point for the listed molecules

Take a look at these entries with their results.
Quick one: melting point for COc1ccc(-c2ccc3ncc(NC(=O)Nc4ccc(N(C)C)cc4)nc3n2)cc1OC ?
262 to 263 °C

Quick one: melting point for CCNC(=O)Nc1ccc2ncc(-c3cc(Cl)ccc3Cl)nc2n1 ?
264 to 269 °C

Quick one: melting point for CCOc1ccc(NC(=O)Nc2cnc3ccc(-c4ccc(O)c(OC)c4)nc3n2)cc1 ?
242 to 245 °C

Quick one: melting point for COc1ccc(-c2ccc3ncc(NC(=O)NC4CCCC4)nc3n2)cc1OC ?
261 to 264 °C

Quick one: melting point for CCNC(=O)Nc1ccc2ncc(-c3cccc([N+](=O)[O-])c3)nc2n1 ?
249 to 253 °C

New cases:
Quick one: melting point for CCNC(=O)Nc1cnc2ccc(-c3cc(Cl)c(O)c(Cl)c3)nc2n1 ?
> 300 °C

Quick one: melting point for COc1cc(Nc2cnc3ccc(NC(=S)NCCN4CCOCC4)nc3n2)cc(OC)c1OC ?
196 °C

Quick one: melting point for CCNC(=S)Nc1ccc2ncc(Nc3ccc(O)c(Cl)c3)nc2n1 ?
220 °C

Quick one: melting point for CCNC(=O)Nc1ccc2ncc(-c3cccc(CO)c3)nc2n1 ?
200 to 202 °C

Quick one: melting point for CCNC(=O)Nc1ccc2ncc(Nc3ccc(N(C)C)cc3)nc2n1 ?
228 °C

Quick one: melting point for CCNC(=O)Nc1cnc2ccc(NCc3ccccc3)nc2n1 ?
211 to 213 °C

Quick one: melting point for CCNC(=O)Nc1ccc2ncc(-c3ccc(NC(=O)OCCOCCOCCOC)c(OC)c3)nc2n1 ?
> 330 °C

Quick one: melting point for CCNC(=O)Nc1ccc2ncc(-c3ccc(OP(=O)(OCC)OCC)c(OC)c3)nc2n1 ?
182 to 184 °C

Quick one: melting point for CCNC(=O)Nc1ccc2ncc(-c3cccc(Br)c3OC(C)C)nc2n1 ?
200 to 202 °C

Quick one: melting point for CCNC(=O)Nc1ccc2ncc(-c3cccc(-c4ccccc4)c3)nc2n1 ?
251 to 255 °C

Quick one: melting point for CCNC(=S)Nc1cnc2ccc(Nc3ccc(OC)c(Cl)c3)nc2n1 ?
225 °C

Quick one: melting point for CCNC(=S)Nc1ccc2ncc(Nc3cc(OC)cc(OC)c3)nc2n1 ?
265 °C

Quick one: melting point for COc1cc(-c2ccc3ncc(NC(=O)Nc4ccc(N5CCN(C)CC5)cc4)nc3n2)ccc1O ?
207 to 210 °C

---

Readings of melting point for the listed compounds

Quick one: melting point for CCNC(=O)Nc1cnc2ccc(-c3cnn(C)c3)nc2n1 [Compound 10] ?
211 °C

Quick one: melting point for CCNC(=S)Nc1cnc2ccc(-c3ccc(C)cc3)nc2n1 [Compound 651] ?
230 to 231 °C

---

readoutKind: melting point (°C)

Quick one: melting point for CCNC(=S)Nc1ccc2ncc(Nc3ccc(O)cc3)nc2n1 ?
262

Quick one: melting point for CCNC(=O)Nc1cnc2ccc(Nc3ccc(C)cc3)nc2n1 ?
235

Quick one: melting point for CCNC(=O)Nc1cnc2ccc(-c3ccc(O)c(Br)c3)nc2n1 ?
291

---

Readings of melting point for the listed compounds

Quick one: melting point for CCNC(=S)Nc1cnc2ccc(Nc3cccc(OC)c3)nc2n1 [Compound 221] ?
189 °C

Quick one: melting point for CCCOc1c(C)cc(-c2ccc3ncc(NC(=O)NCC)nc3n2)cc1C [Compound 598] ?
232 °C

Quick one: melting point for CCNC(=S)Nc1ccc2ncc(Nc3ccc(C)cc3)nc2n1 [Compound 126] ?
278 °C

Quick one: melting point for CCNC(=S)Nc1cnc2ccc(Nc3ccc(OC)c(O)c3)nc2n1 [Compound 205] ?
166 °C

Quick one: melting point for COc1cc(-c2ccc3ncc(NC(=O)NCCc4ccccc4)nc3n2)ccc1O [Compound 26] ?
235 to 237 °C

We now examine a further compound.
Quick one: melting point for CCNC(=O)Nc1cnc2ccc(-c3cc(C)cc(Br)c3OC)nc2n1 [Compound 639] ?
250 to 252 °C

---

Readings of melting point for the listed molecules

Take a look at these entries with their results.
Quick one: melting point for CCCNC(=O)Nc1cnc2ccc(-c3ccc(O)c(OC)c3)nc2n1 ?
220 to 222 °C

Quick one: melting point for COc1cc(-c2ccc3ncc(NC(=O)Nc4cccc5c4ccn5C)nc3n2)ccc1O ?
248 to 251 °C

Quick one: melting point for CCNC(=O)Nc1cnc2ccc(-c3ccc(OC)c(OC)c3)nc2n1 ?
> 235 °C

Quick one: melting point for CC(C)(C)NC(=O)Nc1cnc2ccc(-c3cc(Cl)c(O)c(Cl)c3)nc2n1 ?
251 to 253 °C

Quick one: melting point for CCNC(=O)Nc1ccc2ncc(-c3ccccc3OCC)nc2n1 ?
220 to 222 °C

New cases:
Quick one: melting point for CCNC(=S)Nc1cnc2ccc(Nc3ccc(C)c(OC)c3)nc2n1 ?
148 °C

Quick one: melting point for CCNC(=O)Nc1ccc2ncc(-c3ccc(Cl)cc3)nc2n1 ?
244 to 247 °C

Quick one: melting point for COc1cc(-c2ccc3ncc(NC(=O)Nc4ccnc(N5CCOCC5)c4)nc3n2)ccc1O ?
260 to 263 °C

---

readoutKind: melting point (°C)

Take a look at these entries with their results.
Quick one: melting point for CCNC(=S)Nc1ccc2ncc(Nc3ccc(C)c(NS(C)(=O)=O)c3)nc2n1 ?
268

Quick one: melting point for CCCCOc1c(C)cc(-c2ccc3ncc(NC(=O)NCC)nc3n2)cc1C ?
233

1 = CCCCCNC(=S)Nc1ccc2ncc(Nc3cc(OC)c(OC)c(OC)c3)nc2n1
2 = CCNc1ccc2ncc(Nc3cc(OC)c(OC)c(OC)c3)nc2n1
Record comparison, field melting point: mark the lower of 1 and 2 . Refer to your chosen entry by its label in the reply.
2

---

readoutKind: melting point (°C)

Quick one: melting point for CCNC(=S)Nc1ccc2ncc(Nc3cccc(OC(C)C)c3)nc2n1 ?
238

Quick one: melting point for CCNC(=S)Nc1cnc2ccc(Nc3ccc(C4(C#N)CCCC4)cc3)nc2n1 ?
216

Quick one: melting point for COc1cc(Nc2cnc3ccc(NC(=S)NC4CCCCCCC4)nc3n2)cc(OC)c1OC ?
250

Quick one: melting point for CCNC(=S)Nc1ccc2ncc(Nc3ccc(O)c(C)c3)nc2n1 ?
258

Quick one: melting point for CCNC(=O)Nc1ccc2ncc(-c3ccsc3)nc2n1 ?
250

Quick one: melting point for CCNC(=S)Nc1ccc2ncc(N(C)c3cc(OC)c(OC)c(OC)c3)nc2n1 ?
222

Quick one: melting point for CCNC(=S)Nc1cnc2ccc(Nc3ccccc3O)nc2n1 ?
211

---

Readings of melting point for the listed compounds

Take a look at these entries with their results.
Quick one: melting point for C=CCNC(=S)Nc1cnc2ccc(-c3ccc(O)c(OC)c3)nc2n1 ?
261 to 262 °C

Quick one: melting point for CCNC(=O)Nc1ccc2ncc(Nc3cc(C)c(O)cc3C)nc2n1 ?
222 °C

New cases:
Quick one: melting point for COc1cc(-c2ccc3ncc(NC(=O)NC4CCN(C(=O)C(F)(F)F)CC4)nc3n2)ccc1O ?
236 to 239 °C

---

readoutKind: melting point

Take a look at these entries with their results.
Quick one: melting point for COc1cc(-c2ccc3ncc(NC(=O)Nc4c(C)noc4C)nc3n2)ccc1O [Compound 27] ?
249 to 252 °C

Quick one: melting point for CCNC(=O)Nc1cnc2ccc(Nc3ccccc3)nc2n1 [Compound 13] ?
202 °C

Quick one: melting point for CCCNC(=O)Nc1cnc2ccc(-c3cc(Cl)c(O)c(Cl)c3)nc2n1 [Compound 551] ?
265 to 268 °C

Quick one: melting point for CCNC(=O)Nc1cnc2ccc(-c3cc(OC)c(OC)c(OC)c3)nc2n1 [Compound 23] ?
> 230 °C

New cases:
Quick one: melting point for COc1ccc(-c2ccc3ncc(NC(=O)NC4CCCCC4)nc3n2)cc1OC [Compound 571] ?
262 to 264 °C

Quick one: melting point for CCCNC(=O)Nc1cnc2ccc(-c3ccc(OC)c(OC)c3)nc2n1 [Compound 570] ?
246 to 248 °C

Quick one: melting point for CCNC(=O)Nc1ccc2ncc(-c3cc(C)cc(Br)c3OCc3ccccc3)nc2n1 [Compound 109] ?
236 to 238 °C

Quick one: melting point for CCNC(=O)Nc1ccc2ncc(-c3ccc(OS(C)(=O)=O)c(OC)c3)nc2n1 [Compound 43] ?
246 to 249 °C

Quick one: melting point for CCNC(=O)Nc1ccc2ncc(Nc3ccc(O)c(C(=O)OC)c3)nc2n1 [Compound 50] ?
195 to 200 °C

Quick one: melting point for CCNC(=O)Nc1cnc2ccc(-c3ccc(OC)cc3)nc2n1 [Compound 11] ?
244 °C

---

readoutKind: melting point

Quick one: melting point for CCNC(=O)Nc1ccc2ncc(Nc3cccc(Oc4ccccc4)c3)nc2n1 ?
230 °C

New cases:
Quick one: melting point for Cc1cc(-c2ccc3ncc(NC(=O)NC4CCN(C(=O)C(F)(F)F)CC4)nc3n2)cc(C)c1O ?
251 to 253 °C

Values from patent US8536332B2
